# SYSTEM NAME: human CRTH2 (Homo sapiens, UniProt Q9Y5Y4)
# Sequence (Q9Y5Y4 whole entry): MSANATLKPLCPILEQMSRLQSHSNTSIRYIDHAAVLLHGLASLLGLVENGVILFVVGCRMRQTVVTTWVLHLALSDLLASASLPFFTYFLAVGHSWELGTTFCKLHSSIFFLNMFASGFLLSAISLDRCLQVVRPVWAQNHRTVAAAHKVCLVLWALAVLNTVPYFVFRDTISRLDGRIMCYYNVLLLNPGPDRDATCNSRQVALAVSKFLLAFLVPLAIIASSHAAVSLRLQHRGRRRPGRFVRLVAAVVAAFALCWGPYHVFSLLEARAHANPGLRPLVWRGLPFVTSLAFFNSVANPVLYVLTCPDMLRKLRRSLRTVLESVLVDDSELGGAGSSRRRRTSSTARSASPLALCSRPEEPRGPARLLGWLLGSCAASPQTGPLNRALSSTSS
# ASSAY NOTES: Human CRTH2 Receptor Binding Assay (whole cell, [3H]ramatroban competition)
# Design: expressed in transfected cells; host or cells: CHO-K1 (co-transfected with G-alpha16)
# MEASUREMENT PARAMETERS: CHO-K1 cells expressing human CRTH2 and G-alpha16; 20 nM [3H]ramatroban; 1 hour, room temperature
pIC50: −log10 of the molar value.
READOUT: pIC50

A = CN([C@@H]1CCCc2c(OCC(=O)O)cccc21)S(=O)(=O)c1cc(C(C)(C)C)cc(C(C)(C)C)c1
B = CN([C@@H]1CCCc2c(OCC(=O)O)cccc21)S(=O)(=O)c1cc(C(F)(F)F)cc(S(=O)(=O)C(C)(C)C)c1
C = CN([C@@H]1CCCc2c(OCC(=O)O)cccc21)S(=O)(=O)c1cc(S(C)(=O)=O)cc(S(C)(=O)=O)c1
D = CN([C@@H]1CCCc2c(OCC(=O)O)cccc21)S(=O)(=O)c1cc(Br)cc(C(F)(F)F)c1
Hello, I need these entries ordered by pIC50, highest reading first. Thanks! Please write the labels in the order that was asked for. B, C, D, A

Measured values drawn from patent US20100041760A1 for this set.
